Consider the following compounds; for each one, report its Emax.
- system_name: hMC-4R (Homo sapiens)
- Construct: expressed in transfected cells; host or cells: HEK293 cells (membrane preparations)
- method_description: Functional assay: membrane based cAMP fluorescence polarization assay for agonistic activity
- Type: biochemical
- condition_notes: read-out: % activation functional assay
Return type: number; implicit unit %.

Which Emax is listed for CC(C)CCN(CCC(C)C)C(=O)c1ccc2nc(Nc3ncccn3)c(C#CCN3CCCC3)n2c1 ?
-12

Also CC(C)CCN(CCC(C)C)C(=O)c1ccc2nc(-c3ccc4nccn4c3)c(C#CCN3CCCC3)n2c1 ?
-12

Entry Cc1n[nH]cc1-c1nc2ccc(C(=O)N(CCC(C)C)CCC(C)C)cn2c1C#CCN1CCCC1 please
4

What do you get for Cc1cc(-c2nc3ccc(C(=O)N(CCC(C)C)CCC(C)C)cn3c2C#CCN2CCCC2)n(C)n1 ?
3

Then this compound: COc1cc(Nc2nc3ccc(C(=O)N(CCC(C)C)CCC(C)C)cn3c2C#CCN2CCCC2)ccc1F
-5

What do we get for COc1cccc(Nc2nc3ccc(C(=O)N(CCC(C)C)CCC(C)C)cn3c2C#CCN2CCCC2)c1 ?
-3

Can you handle COc1cc(Nc2nc3ccc(C(=O)N(CCC(C)C)CCC(C)C)cn3c2C#CCN2CCCC2)ccn1 next?
-13

Could you do the same for CC(C)CCN(CCC(C)C)C(=O)c1ccc2nc(Nc3ccccn3)c(C#CCN3CCCC3)n2c1 , please?
-7

====

Could you please report measured pIC50 for the items listed next?
- system_name: hMC-4R (Homo sapiens, UniProt P32245)
- Construct: expressed in transfected cells; host or cells: HEK293 cells (membrane preparations)
- Sequence (P32245 whole entry): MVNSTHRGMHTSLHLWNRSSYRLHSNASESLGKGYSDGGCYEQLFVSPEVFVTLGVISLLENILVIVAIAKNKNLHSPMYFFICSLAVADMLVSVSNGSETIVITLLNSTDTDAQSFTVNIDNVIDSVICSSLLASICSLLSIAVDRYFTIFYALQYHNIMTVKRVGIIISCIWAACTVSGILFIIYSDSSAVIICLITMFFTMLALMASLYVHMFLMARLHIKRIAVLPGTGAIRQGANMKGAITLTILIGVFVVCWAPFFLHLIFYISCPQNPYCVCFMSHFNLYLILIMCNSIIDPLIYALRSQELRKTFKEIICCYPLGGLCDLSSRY
- method_description: Membrane binding assay: competition with fluorescence labeled NDP-alpha-MSH, fluorescence polarization
- condition_notes: HEK293 cell membrane preparations expressing human melanocortin receptors; 5 h at room temperature; read-out: hMC-4R binding assay IC50
pIC50: −log10 of the molar value.

# input compound: Cc1n[nH]cc1-c1nc2ccc(C(=O)N(CCC(C)C)CCC(C)C)cn2c1C#CCN1CCCC1 ; wanted: its pIC50
6.00 to 7.00

Also check CC(C)CCN(CCC(C)C)C(=O)c1ccc2nc(-c3cnn(CC4OCCO4)c3)c(C#CCN3CCCC3)n2c1
> 7.00

Query COc1ccc(Nc2nc3ccc(C(=O)N(CCC(C)C)CCC(C)C)cn3c2C#CCN2CCCC2)cn1 next
> 7.00

Then this compound: CC(C)CCN(CCC(C)C)C(=O)c1ccc2nc(-c3ccc(F)c(F)c3)c(C#CCN3CCCC3)n2c1
6.00 to 7.00

Param item: COc1cc(Nc2nc3ccc(C(=O)N(CCC(C)C)CCC(C)C)cn3c2C#CCN2CCCC2)ccc1F
> 7.00

Check COc1ncc(-c2nc3ccc(C(=O)N(CCC(C)C)CCC(C)C)cn3c2C#CCN2CCCC2)cc1F too.
6.00 to 7.00

Try this compound next: COc1ccc(Nc2nc3ccc(C(=O)N(CCC(C)C)CCC(C)C)cn3c2C#CCN2CCCC2)cc1F
> 7.00

====

- system_name: hMC-4R (Homo sapiens, UniProt P32245)
- Construct: expressed in transfected cells; host or cells: HEK293 cells (membrane preparations)
- method_description: Functional assay: membrane based cAMP fluorescence polarization assay for agonistic activity
- Type: biochemical
- condition_notes: read-out: % activation functional assay
attribute_measured: Emax

Quick one: Emax of CC(C)CCN(CCC(C)C)C(=O)c1ccc2nc(-c3cnco3)c(C#CCN3CCCC3)n2c1 ?
0%

Also CCOC(=O)c1nc2ccc(C(=O)N(CCC(C)C)CCC(C)C)cn2c1C#CCN1CCCC1 , if possible.
0%

Same for CC(C)CCN(CCC(C)C)C(=O)c1ccc2nc(C#Cc3ccccc3)c(C#CCN3CCCC3)n2c1
5%

Try COc1cccc(-c2nc3ccc(C(=O)N(CCC(C)C)CCC(C)C)cn3c2C#CCN2CCCC2)n1 next.
-4%

Please answer likewise for COc1cc(F)cc(-c2nc3ccc(C(=O)N(CCC(C)C)CCC(C)C)cn3c2C#CCN2CCCC2)c1
-2%

// next record CC(C)CCN(CCC(C)C)C(=O)c1ccc2nc(-c3cn[nH]c3)c(C#CCN3CCCC3)n2c1
-6%

Same again, this time with CC(C)CCN(CCC(C)C)C(=O)c1ccc2nc(N3CCOCC3)c(C#CCN3CCCC3)n2c1
0%

Also need CC(C)CCN(CCC(C)C)C(=O)c1ccc2nc(-c3cnn(CC4OCCO4)c3)c(C#CCN3CCCC3)n2c1 , thanks.
-4%

====

- system_name: hMC-4R (Homo sapiens, UniProt P32245)
- Construct: expressed in transfected cells; host or cells: HEK293 cells (membrane preparations)
- method_description: Membrane binding assay: competition with fluorescence labeled NDP-alpha-MSH, fluorescence polarization
- condition_notes: HEK293 cell membrane preparations expressing human melanocortin receptors; 5 h at room temperature; read-out: hMC-4R binding assay IC50
attribute_measured: IC50

GET /values?readout=IC50&item= CC(C)CCN(CCC(C)C)C(=O)c1ccc2nc(N(C)c3ccccn3)c(C#CCN3CCCC3)n2c1
0.1 to 1 µM

What do you get for COc1cccc(-c2nc3ccc(C(=O)N(CCC(C)C)CCC(C)C)cn3c2C#CCN2CCCC2)n1 ?
0.1 to 1 µM

CC(C)CCN(CCC(C)C)C(=O)c1ccc2nc(C3=CCN(C(=O)OC(C)(C)C)CC3)c(C#CCN3CCCC3)n2c1 ?
> 1 µM

Okay, and COc1cccc(Nc2nc3ccc(C(=O)N(CCC(C)C)CCC(C)C)cn3c2C#CCN2CCCC2)c1 ?
< 0.1 µM

Next record, please: CC(C)CCN(CCC(C)C)C(=O)c1ccc2nc(-c3ccc4nccn4c3)c(C#CCN3CCCC3)n2c1
< 0.1 µM

Entry to check: CC(C)CCN(CCC(C)C)C(=O)c1ccc2nc(-c3ccco3)c(C#CCN3CCCC3)n2c1
0.1 to 1 µM

Item: COc1cc(F)cc(-c2nc3ccc(C(=O)N(CCC(C)C)CCC(C)C)cn3c2C#CCN2CCCC2)c1
> 1 µM

====

- system_name: hMC-4R (Homo sapiens, UniProt P32245)
- Construct: expressed in transfected cells; host or cells: HEK293 cells (membrane preparations)
- method_description: Functional assay: membrane based cAMP fluorescence polarization assay for agonistic activity
- Assay type: biochemical
- condition_notes: read-out: % activation functional assay
Kindly state Emax for each of the entries shown.
Response body: numeric value in %, unit text excluded.

Value lookup for Emax; key = CC(C)CCN(CCC(C)C)C(=O)c1ccc2nc(-c3ccco3)c(C#CCN3CCCC3)n2c1
5

Similarly, CC(C)CCN(CCC(C)C)C(=O)c1ccc2nc(N(C)c3ccccn3)c(C#CCN3CCCC3)n2c1 ?
-4

Moving on to CC(C)CCN(CCC(C)C)C(=O)c1ccc2nc(-c3cc(F)cc(F)c3)c(C#CCN3CCCC3)n2c1
-3

Please give the result for COc1cccc(N(C)c2nc3ccc(C(=O)N(CCC(C)C)CCC(C)C)cn3c2C#CCN2CCCC2)c1 too.
0
